All figures here come from the supplement of paper PMC10307832.

Tested on: NCI-H2228
Experiment: relative viability (nuclei count vs DMSO), 5 days (fraction); higher = more cells survive
Conditions: first compound 2.53 µM
So basically, if relative viability comes in under 0.4 it's class 1, and if it's 0.4 or more it's class 0.

- MOLECULE: "Cc1cnc(-c2cnc(NCCNc3ccc(C#N)cn3)nc2-c2ccc(Cl)cc2Cl)[nH]1 + Nc1nc2[nH]cc(CCc3ccc(C(=O)N[C@@H](CCC(=O)O)C(=O)O)cc3)c2c(=O)[nH]1 [Pemetrexed] (partner 0.2 µM)"
  CLASS_NAME: "class 1"
- MOLECULE: "Cc1cnc(-c2cnc(NCCNc3ccc(C#N)cn3)nc2-c2ccc(Cl)cc2Cl)[nH]1 + CC(=O)c1c(C)c2cnc(Nc3ccc(N4CCNCC4)cn3)nc2n(C2CCCC2)c1=O [Palbociclib] (partner 0.5 µM)"
  CLASS_NAME: "class 0"
- MOLECULE: "Cc1cnc(-c2cnc(NCCNc3ccc(C#N)cn3)nc2-c2ccc(Cl)cc2Cl)[nH]1 + CC(=O)Nc1cccc(-n2c(=O)n(C3CC3)c(=O)c3c(Nc4ccc(I)cc4F)n(C)c(=O)c(C)c32)c1 [Trametinib] (partner 0.02 µM)"
  CLASS_NAME: "class 0"
- MOLECULE: "O=c1[nH]c2ccccc2n1C1CCN(CCCC(c2ccc(F)cc2)c2ccc(F)cc2)CC1 [Pimozide] + N=C(N)NC(=N)NCCc1ccccc1 [Phenformin] (partner 250 µM)"
  CLASS_NAME: "class 1"
- MOLECULE: "O=c1[nH]c2ccccc2n1C1CCN(CCCC(c2ccc(F)cc2)c2ccc(F)cc2)CC1 [Pimozide] + COc1cc2c(Oc3ccc(NC(=O)C4(C(=O)Nc5ccc(F)cc5)CC4)cc3F)ccnc2cc1OCCCN1CCOCC1 [Foretinib] (partner 0.25 µM)"
  CLASS_NAME: "class 0"

###

System: NCI-H1395
Assay: relative viability (nuclei count vs DMSO), 5 days (fraction); higher = more cells survive
Details: first compound 2.53 µM
Sorting guide: entries reporting relative viability beneath 0.9 go in the class 1 pile, the rest go in the class 0 pile.

- MOLECULE: "Cc1cnc(-c2cnc(NCCNc3ccc(C#N)cn3)nc2-c2ccc(Cl)cc2Cl)[nH]1 + Cc1nc(NC(=O)N2CCC[C@H]2C(N)=O)sc1-c1ccnc(C(C)(C)C(F)(F)F)c1 [Alpelisib] (partner 2 µM)"
  MEASUREMENT_TARGET: "NCI-H1395"
  CLASS_NAME: "class 0"
- MOLECULE: "Cc1cnc(-c2cnc(NCCNc3ccc(C#N)cn3)nc2-c2ccc(Cl)cc2Cl)[nH]1 + O=C(c1cc(Cc2n[nH]c(=O)c3ccccc23)ccc1F)N1CCN(C(=O)C2CC2)CC1 [Olaparib] (partner 8 µM)"
  MEASUREMENT_TARGET: "NCI-H1395"
  CLASS_NAME: "class 1"
- MOLECULE: "Cc1cnc(-c2cnc(NCCNc3ccc(C#N)cn3)nc2-c2ccc(Cl)cc2Cl)[nH]1 + Cc1nc(Nc2ncc(C(=O)Nc3c(C)cccc3Cl)s2)cc(N2CCN(CCO)CC2)n1 [Dasatinib] (partner 0.075 µM)"
  MEASUREMENT_TARGET: "NCI-H1395"
  CLASS_NAME: "class 1"
- MOLECULE: "O=c1[nH]c2ccccc2n1C1CCN(CCCC(c2ccc(F)cc2)c2ccc(F)cc2)CC1 [Pimozide] + Cc1cc(Nc2cc(N3CCN(C)CC3)nc(Sc3ccc(NC(=O)C4CC4)cc3)n2)n[nH]1 [Tozasertib] (partner 0.1 µM)"
  MEASUREMENT_TARGET: "NCI-H1395"
  CLASS_NAME: "class 1"
- MOLECULE: "Cc1cnc(-c2cnc(NCCNc3ccc(C#N)cn3)nc2-c2ccc(Cl)cc2Cl)[nH]1 + C[C@]1(O)C[C@@H](c2nc(-c3ccc4ccc(-c5ccccc5)nc4c3)c3c(N)nccn32)C1 [Linsitinib] (partner 1 µM)"
  MEASUREMENT_TARGET: "NCI-H1395"
  CLASS_NAME: "class 0"
- MOLECULE: "Cc1cnc(-c2cnc(NCCNc3ccc(C#N)cn3)nc2-c2ccc(Cl)cc2Cl)[nH]1 + CS(=O)(=O)CCNCc1ccc(-c2ccc3ncnc(Nc4ccc(OCc5cccc(F)c5)c(Cl)c4)c3c2)o1 [Lapatinib] (partner 2 µM)"
  MEASUREMENT_TARGET: "NCI-H1395"
  CLASS_NAME: "class 0"
- MOLECULE: "O=c1[nH]c2ccccc2n1C1CCN(CCCC(c2ccc(F)cc2)c2ccc(F)cc2)CC1 [Pimozide] + Nc1ncn([C@H]2C[C@H](O)[C@@H](CO)O2)c(=O)n1 [Decitabine] (partner 2 µM)"
  MEASUREMENT_TARGET: "NCI-H1395"
  CLASS_NAME: "class 1"

###

Tested on: EMC-BAC-2
Assay: relative viability (nuclei count vs DMSO), 5 days (fraction); higher = more cells survive
Conditions: first compound 0.5 µM
Doc: threshold 0.4 (exclusive). Items with relative viability beneath it return 1 (yes); others return 0 (no).

- COMPOUND: "COc1cc2nccc(Oc3ccc(NC(=O)Nc4cc(C)on4)c(Cl)c3)c2cc1OC [Tivozanib] + CC1(C)CCC(c2ccc(Cl)cc2)=C(CN2CCN(c3ccc(C(=O)NS(=O)(=O)c4ccc(N[C@H](CCN5CCOCC5)CSc5ccccc5)c(S(=O)(=O)C(F)(F)F)c4)cc3)CC2)C1 [Navitoclax] (partner 0.5 µM)"
  MEASUREMENT_TARGET: "EMC-BAC-2"
  CLASS_NAME: "0 (no)"
- COMPOUND: "COc1cc2nccc(Oc3ccc(NC(=O)Nc4cc(C)on4)c(Cl)c3)c2cc1OC [Tivozanib] + O=C(c1cc(Cc2n[nH]c(=O)c3ccccc23)ccc1F)N1CCN(C(=O)C2CC2)CC1 [Olaparib] (partner 8 µM)"
  MEASUREMENT_TARGET: "EMC-BAC-2"
  CLASS_NAME: "1 (yes)"
- COMPOUND: "Nc1ccn([C@@H]2O[C@H](CO)[C@@H](O)[C@@H]2O)c(=O)n1 [Cytarabine] + Nc1nc2[nH]cc(CCc3ccc(C(=O)N[C@@H](CCC(=O)O)C(=O)O)cc3)c2c(=O)[nH]1 [Pemetrexed] (partner 0.2 µM)"
  MEASUREMENT_TARGET: "EMC-BAC-2"
  CLASS_NAME: "1 (yes)"
- COMPOUND: "COc1cc2nccc(Oc3ccc(NC(=O)Nc4cc(C)on4)c(Cl)c3)c2cc1OC [Tivozanib] + COc1cc2c(Oc3ccc(NC(=O)C4(C(=O)Nc5ccc(F)cc5)CC4)cc3F)ccnc2cc1OCCCN1CCOCC1 [Foretinib] (partner 0.25 µM)"
  MEASUREMENT_TARGET: "EMC-BAC-2"
  CLASS_NAME: "0 (no)"
- COMPOUND: "Nc1ccn([C@@H]2O[C@H](CO)[C@@H](O)[C@@H]2O)c(=O)n1 [Cytarabine] + COc1cc2c(Oc3ccc(NC(=O)C4(C(=O)Nc5ccc(F)cc5)CC4)cc3F)ccnc2cc1OCCCN1CCOCC1 [Foretinib] (partner 0.25 µM)"
  MEASUREMENT_TARGET: "EMC-BAC-2"
  CLASS_NAME: "1 (yes)"
- COMPOUND: "COc1cc2nccc(Oc3ccc(NC(=O)Nc4cc(C)on4)c(Cl)c3)c2cc1OC [Tivozanib] + C[C@]1(O)C[C@@H](c2nc(-c3ccc4ccc(-c5ccccc5)nc4c3)c3c(N)nccn32)C1 [Linsitinib] (partner 1 µM)"
  MEASUREMENT_TARGET: "EMC-BAC-2"
  CLASS_NAME: "0 (no)"
- COMPOUND: "COc1cc2nccc(Oc3ccc(NC(=O)Nc4cc(C)on4)c(Cl)c3)c2cc1OC [Tivozanib] + COc1cccc2cc(-c3nc([C@H]4CC[C@H](C(=O)O)CC4)n4ncnc(N)c34)[nH]c12 [OSI-027] (partner 0.5 µM)"
  MEASUREMENT_TARGET: "EMC-BAC-2"
  CLASS_NAME: "1 (yes)"
- COMPOUND: "COc1cc2nccc(Oc3ccc(NC(=O)Nc4cc(C)on4)c(Cl)c3)c2cc1OC [Tivozanib] + NC(=O)Nc1cc(-c2cccc(F)c2)sc1C(=O)N[C@H]1CCCNC1 [AZD7762] (partner 0.2 µM)"
  MEASUREMENT_TARGET: "EMC-BAC-2"
  CLASS_NAME: "0 (no)"
- COMPOUND: "Nc1ccn([C@@H]2O[C@H](CO)[C@@H](O)[C@@H]2O)c(=O)n1 [Cytarabine] + CC(=O)Nc1cccc(-n2c(=O)n(C3CC3)c(=O)c3c(Nc4ccc(I)cc4F)n(C)c(=O)c(C)c32)c1 [Trametinib] (partner 0.02 µM)"
  MEASUREMENT_TARGET: "EMC-BAC-2"
  CLASS_NAME: "0 (no)"
